System: Hela cells
Assay: Cell viability, crystal violet staining, Hela
Type: cell-based, human
Settings: Homo sapiens, HeLa, 48 h
IC50 overview
# value in µM; strip the unit string

COc1ccc(C=NNc2ncnc3c2cnn3-c2ccccc2)cc1    74.8

Data request: Query (compound): COc1cc(C=NNc2ncnc3c2cnn3-c2ccccc2)cc(OC)c1OC ; field requested: IC50
Data returned: 17.5
